Target: T1, CD3 epsilon homodimer protein (UniProt P07766 23-126)
T1 construct: also called CD3 (CD3 epsilon)
T1 sequence (P07766 23-126): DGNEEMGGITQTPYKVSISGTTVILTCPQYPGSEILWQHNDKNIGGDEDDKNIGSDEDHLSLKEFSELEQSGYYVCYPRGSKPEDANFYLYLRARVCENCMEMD
Assay: SPR Biacore T200, CD3e homodimer on chip, vs unaltered GLS3000 antibody
Each entry falls into one class according to its ratio of amounts bound (Z=Y/X); the ranges are low-valued = under 0.6, mid-valued = from 0.6 up to 0.9, high-valued = 0.9 and over

Please review the entries below; each comes with its answer.
[[record]]
binder = "GLS3000 N30H (antibody, name in Kabat numbering, V domains shown, one-arm IgG as m2) VH: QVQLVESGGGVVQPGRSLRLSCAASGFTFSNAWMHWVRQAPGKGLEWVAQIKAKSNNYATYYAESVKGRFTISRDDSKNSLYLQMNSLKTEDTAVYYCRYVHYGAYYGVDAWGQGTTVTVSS VL: DIVMTQSPLSLPVTPGEPASISCRSSQSLVHSNRHTYLHWYQQKPGQAPRLLIYKVSNRFSGVPDRFSGSGSGTDFTLKISRVEAEDVGVYYCGQGTQVPYTFGQGTKLEIK"
class_name = "high-valued"

[[record]]
binder = "GLS3000 N28G (antibody, name in Kabat numbering, V domains shown, one-arm IgG as m2) VH: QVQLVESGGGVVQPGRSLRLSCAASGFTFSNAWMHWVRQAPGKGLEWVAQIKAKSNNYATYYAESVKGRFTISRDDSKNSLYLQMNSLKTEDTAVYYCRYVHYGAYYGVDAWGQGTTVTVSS VL: DIVMTQSPLSLPVTPGEPASISCRSSQSLVHSGRNTYLHWYQQKPGQAPRLLIYKVSNRFSGVPDRFSGSGSGTDFTLKISRVEAEDVGVYYCGQGTQVPYTFGQGTKLEIK"
class_name = "low-valued"

[[record]]
binder = "GLS3000 Q93E (antibody, name in Kabat numbering, V domains shown, one-arm IgG as m2) VH: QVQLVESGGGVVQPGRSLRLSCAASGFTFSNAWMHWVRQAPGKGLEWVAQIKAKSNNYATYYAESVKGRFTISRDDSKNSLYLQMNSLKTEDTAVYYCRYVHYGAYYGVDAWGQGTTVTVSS VL: DIVMTQSPLSLPVTPGEPASISCRSSQSLVHSNRNTYLHWYQQKPGQAPRLLIYKVSNRFSGVPDRFSGSGSGTDFTLKISRVEAEDVGVYYCGQGTEVPYTFGQGTKLEIK"
class_name = "mid-valued"


The entry to classify is GLS3000 V94E (antibody, name in Kabat numbering, V domains shown, one-arm IgG as m2) VH: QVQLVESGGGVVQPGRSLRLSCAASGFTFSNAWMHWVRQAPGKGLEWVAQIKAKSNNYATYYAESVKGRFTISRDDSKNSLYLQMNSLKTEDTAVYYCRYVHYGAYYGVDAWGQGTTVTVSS VL: DIVMTQSPLSLPVTPGEPASISCRSSQSLVHSNRNTYLHWYQQKPGQAPRLLIYKVSNRFSGVPDRFSGSGSGTDFTLKISRVEAEDVGVYYCGQGTQEPYTFGQGTKLEIK ; which class holds it?
low-valued

The entry to classify is GLS3000 V94K (antibody, name in Kabat numbering, V domains shown, one-arm IgG as m2) VH: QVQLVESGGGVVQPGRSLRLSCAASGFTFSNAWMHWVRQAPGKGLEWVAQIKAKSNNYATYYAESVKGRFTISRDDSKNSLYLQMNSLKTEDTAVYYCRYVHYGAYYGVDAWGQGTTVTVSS VL: DIVMTQSPLSLPVTPGEPASISCRSSQSLVHSNRNTYLHWYQQKPGQAPRLLIYKVSNRFSGVPDRFSGSGSGTDFTLKISRVEAEDVGVYYCGQGTQKPYTFGQGTKLEIK ; which class holds it?
low-valued

The entry to classify is GLS3000 K50Y (antibody, name in Kabat numbering, V domains shown, one-arm IgG as m2) VH: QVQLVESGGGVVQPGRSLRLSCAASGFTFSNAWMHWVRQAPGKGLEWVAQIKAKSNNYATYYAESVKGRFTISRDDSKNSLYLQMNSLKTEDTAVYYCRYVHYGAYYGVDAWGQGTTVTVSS VL: DIVMTQSPLSLPVTPGEPASISCRSSQSLVHSNRNTYLHWYQQKPGQAPRLLIYYVSNRFSGVPDRFSGSGSGTDFTLKISRVEAEDVGVYYCGQGTQVPYTFGQGTKLEIK ; which class holds it?
low-valued

The entry to classify is GLS3000 G89T (antibody, name in Kabat numbering, V domains shown, one-arm IgG as m2) VH: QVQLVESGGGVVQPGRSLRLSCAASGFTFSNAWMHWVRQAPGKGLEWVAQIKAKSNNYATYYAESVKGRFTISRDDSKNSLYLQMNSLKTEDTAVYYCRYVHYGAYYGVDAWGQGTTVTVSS VL: DIVMTQSPLSLPVTPGEPASISCRSSQSLVHSNRNTYLHWYQQKPGQAPRLLIYKVSNRFSGVPDRFSGSGSGTDFTLKISRVEAEDVGVYYCTQGTQVPYTFGQGTKLEIK ; which class holds it?
high-valued

The entry to classify is GLS3000 F55W (antibody, name in Kabat numbering, V domains shown, one-arm IgG as m2) VH: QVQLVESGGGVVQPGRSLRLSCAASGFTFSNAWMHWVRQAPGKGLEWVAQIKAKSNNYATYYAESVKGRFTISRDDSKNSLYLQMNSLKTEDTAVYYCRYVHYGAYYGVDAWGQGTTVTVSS VL: DIVMTQSPLSLPVTPGEPASISCRSSQSLVHSNRNTYLHWYQQKPGQAPRLLIYKVSNRWSGVPDRFSGSGSGTDFTLKISRVEAEDVGVYYCGQGTQVPYTFGQGTKLEIK ; which class holds it?
mid-valued

The entry to classify is GLS3000 S56V (antibody, name in Kabat numbering, V domains shown, one-arm IgG as m2) VH: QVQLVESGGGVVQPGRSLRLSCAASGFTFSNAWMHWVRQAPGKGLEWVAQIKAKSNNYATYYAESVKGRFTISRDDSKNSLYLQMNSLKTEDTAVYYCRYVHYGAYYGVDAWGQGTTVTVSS VL: DIVMTQSPLSLPVTPGEPASISCRSSQSLVHSNRNTYLHWYQQKPGQAPRLLIYKVSNRFVGVPDRFSGSGSGTDFTLKISRVEAEDVGVYYCGQGTQVPYTFGQGTKLEIK ; which class holds it?
high-valued

The entry to classify is GLS3000 G89A (antibody, name in Kabat numbering, V domains shown, one-arm IgG as m2) VH: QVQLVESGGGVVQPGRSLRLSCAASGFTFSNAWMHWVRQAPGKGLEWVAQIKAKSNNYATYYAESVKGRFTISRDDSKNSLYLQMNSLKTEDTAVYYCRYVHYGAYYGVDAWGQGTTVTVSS VL: DIVMTQSPLSLPVTPGEPASISCRSSQSLVHSNRNTYLHWYQQKPGQAPRLLIYKVSNRFSGVPDRFSGSGSGTDFTLKISRVEAEDVGVYYCAQGTQVPYTFGQGTKLEIK ; which class holds it?
high-valued
